protocol text: Real time in situ AFM step velocity measurements of L-cystine crystal growth with additive
setup conditions: additive 0.03 mM; supersaturated L-cystine solution; lower = more effective inhibition
quantity: V/Vo (normalized velocity of step advancement)

[ask] Which V/Vo (normalized velocity of step advancement) is listed for `COC(=O)[C@@H](N)CO` ?
[reply] 1.07

[ask] Then what about the compound N[C@@H](CS)C(=O)O [Compound 17, L-cysteine, reference compound] ?
[reply] 1

[ask] Item: CC(S)C(=O)NCC(=O)O (stereo not shown) [Compound 9, N-(2-Mercapto-propionyl)glycine, reference compound]
[reply] 0.74

[ask] Ok, now `COC(=O)[C@@H](N)CS`
[reply] 0.49
